tested-target: PTHR1 receptor
Sequence (P25961 whole entry): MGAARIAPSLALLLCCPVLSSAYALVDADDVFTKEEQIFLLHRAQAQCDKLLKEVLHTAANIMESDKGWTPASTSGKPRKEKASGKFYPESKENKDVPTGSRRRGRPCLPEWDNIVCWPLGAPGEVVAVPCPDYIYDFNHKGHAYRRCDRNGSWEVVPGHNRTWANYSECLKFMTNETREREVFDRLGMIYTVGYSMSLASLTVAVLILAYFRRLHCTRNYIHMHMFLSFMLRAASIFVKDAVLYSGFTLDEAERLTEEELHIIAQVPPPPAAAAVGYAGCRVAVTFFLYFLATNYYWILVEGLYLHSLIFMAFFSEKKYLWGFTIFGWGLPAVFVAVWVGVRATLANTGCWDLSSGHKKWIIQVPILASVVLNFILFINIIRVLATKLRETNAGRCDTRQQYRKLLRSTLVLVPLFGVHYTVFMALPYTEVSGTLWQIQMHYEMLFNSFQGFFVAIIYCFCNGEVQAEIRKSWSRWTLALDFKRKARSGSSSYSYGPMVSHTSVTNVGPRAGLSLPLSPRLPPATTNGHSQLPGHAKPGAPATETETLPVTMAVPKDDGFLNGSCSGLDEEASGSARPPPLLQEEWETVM
* marks the point of attachment. Palmitoyl = CCCCCCCCCCCCCCCC(=O)*
readout-type: Inhibition of Maximal Response (%)
Respond with the bare value in %.

Palmitoyl-SGRVLATKLRET-NH2 (SMILES CCCCCCCCCCCCCCCC(=O)N[C@@H](CO)C(=O)NCC(=O)N[C@@H](CCCNC(=N)N)C(=O)N[C@H](C(=O)N[C@@H](CC(C)C)C(=O)N[C@@H](C)C(=O)N[C@H](C(=O)N[C@@H](CCCCN)C(=O)N[C@@H](CC(C)C)C(=O)N[C@@H](CCCNC(=N)N)C(=O)N[C@@H](CCC(=O)O)C(=O)N[C@H](C(N)=O)[C@@H](C)O)[C@@H](C)O)C(C)C) [Compound 72] ... 22.3
Palmitoyl-TNAGRSDTRQQYRK-NH2 (SMILES CCCCCCCCCCCCCCCC(=O)N[C@H](C(=O)N[C@@H](CC(N)=O)C(=O)N[C@@H](C)C(=O)NCC(=O)N[C@@H](CCCNC(=N)N)C(=O)N[C@@H](CO)C(=O)N[C@@H](CC(=O)O)C(=O)N[C@H](C(=O)N[C@@H](CCCNC(=N)N)C(=O)N[C@@H](CCC(N)=O)C(=O)N[C@@H](CCC(N)=O)C(=O)N[C@@H](Cc1ccc(O)cc1)C(=O)N[C@@H](CCCNC(=N)N)C(=O)N[C@@H](CCCCN)C(N)=O)[C@@H](C)O)[C@@H](C)O) [Compound 69] ... 2.5
Palmitoyl-RRLHSTRNYIHM-NH2 (SMILES CCCCCCCCCCCCCCCC(=O)N[C@@H](CCCNC(=N)N)C(=O)N[C@@H](CCCNC(=N)N)C(=O)N[C@@H](CC(C)C)C(=O)N[C@@H](Cc1c[nH]cn1)C(=O)N[C@@H](CO)C(=O)N[C@H](C(=O)N[C@@H](CCCNC(=N)N)C(=O)N[C@@H](CC(N)=O)C(=O)N[C@@H](Cc1ccc(O)cc1)C(=O)N[C@H](C(=O)N[C@@H](Cc1c[nH]cn1)C(=O)N[C@@H](CCSC)C(N)=O)[C@@H](C)CC)[C@@H](C)O) [Compound 15] ... 1.5

Turning now to a further record.
Query: Value lookup for Inhibition of Maximal Response; key = Palmitoyl-AGRSDTRQQYRKLLFS-NH2 (SMILES CCCCCCCCCCCCCCCC(=O)N[C@@H](C)C(=O)NCC(=O)N[C@@H](CCCNC(=N)N)C(=O)N[C@@H](CO)C(=O)N[C@@H](CC(=O)O)C(=O)N[C@H](C(=O)N[C@@H](CCCNC(=N)N)C(=O)N[C@@H](CCC(N)=O)C(=O)N[C@@H](CCC(N)=O)C(=O)N[C@@H](Cc1ccc(O)cc1)C(=O)N[C@@H](CCCNC(=N)N)C(=O)N[C@@H](CCCCN)C(=O)N[C@@H](CC(C)C)C(=O)N[C@@H](CC(C)C)C(=O)N[C@@H](Cc1ccccc1)C(=O)N[C@@H](CO)C(N)=O)[C@@H](C)O) [Compound 95]
Result: -5.7
